format: in vivo, human; conditions: human, whole blood, po, Tmax, minimum-maximum, with grapefruit juice
measurement-kind: Tmax

Asked: May I ask what Tmax has been recorded for C=CC(=O)N(C)CCOc1c(N)ncnc1-c1cc(F)cc(NC(=O)c2ccc(C3CC3)cc2F)c1C ?
Given back: 0.5 to 2 h

---

type: in vivo, human; details: human, blood, iv, 0.1 mg
measurement-kind: clearance (mL/min)
Report as a plain number; the unit mL/min is understood.

Asked: May I ask what clearance has been recorded for C=CC(=O)N(C)CCOc1c(N)ncnc1-c1cc(F)cc(NC(=O)c2ccc(C3CC3)cc2F)c1C ?
Given back: 1170

---

type: in vivo, human; conditions: human, whole blood, oral, 50 mg, t 1/2, arithmetic mean, remibrutinib alone
measurement-kind: half-life (h)
Report as a plain number; the unit h is understood.

Asked: May I ask what half-life has been recorded for C=CC(=O)N(C)CCOc1c(N)ncnc1-c1cc(F)cc(NC(=O)c2ccc(C3CC3)cc2F)c1C ?
Given back: 6.58
